- system-under-test: Alpha-2C adrenergic receptor (Homo sapiens)
- Sequence (P18825 whole entry): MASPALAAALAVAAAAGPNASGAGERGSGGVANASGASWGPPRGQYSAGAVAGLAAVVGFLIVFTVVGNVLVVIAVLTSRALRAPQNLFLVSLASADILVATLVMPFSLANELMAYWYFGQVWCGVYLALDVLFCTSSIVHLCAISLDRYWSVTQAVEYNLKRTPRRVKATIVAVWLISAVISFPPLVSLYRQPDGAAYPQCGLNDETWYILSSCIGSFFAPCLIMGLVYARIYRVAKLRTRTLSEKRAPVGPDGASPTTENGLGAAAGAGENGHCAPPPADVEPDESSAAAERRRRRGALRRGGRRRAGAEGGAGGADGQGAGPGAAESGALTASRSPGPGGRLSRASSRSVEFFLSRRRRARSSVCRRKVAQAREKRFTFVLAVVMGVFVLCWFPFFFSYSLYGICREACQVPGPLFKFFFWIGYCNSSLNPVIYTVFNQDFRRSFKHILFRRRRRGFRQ
measured-metric: Ki
Quote the value and follow it with the unit of measurement.

Provide the reported Ki (system: Alpha-2C adrenergic receptor (Homo sapiens)) for Clc1ccc(C#Cc2nc(NC3CCCC3)c3nc[nH]c3n2)s1
1.49 µM

---

- system-under-test: Translocator protein (Homo sapiens, UniProt P30536)
- Sequence (P30536 whole entry): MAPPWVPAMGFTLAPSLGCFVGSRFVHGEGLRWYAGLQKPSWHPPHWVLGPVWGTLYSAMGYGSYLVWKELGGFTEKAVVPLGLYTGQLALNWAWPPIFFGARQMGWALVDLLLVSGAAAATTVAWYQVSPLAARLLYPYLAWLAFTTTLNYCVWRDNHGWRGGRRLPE
measured-metric: Ki
Respond with a number, then the unit of measure.

Write Ki of Clc1ccc(C#Cc2nc(NC(C3CC3)C3CC3)c3nc[nH]c3n2)s1 ; system used: Translocator protein (Homo sapiens, UniProt P30536)
2020 nM

---

- system-under-test: Adenosine receptor A1 (Homo sapiens) (UniProt P30542)
- Sequence (P30542 whole entry): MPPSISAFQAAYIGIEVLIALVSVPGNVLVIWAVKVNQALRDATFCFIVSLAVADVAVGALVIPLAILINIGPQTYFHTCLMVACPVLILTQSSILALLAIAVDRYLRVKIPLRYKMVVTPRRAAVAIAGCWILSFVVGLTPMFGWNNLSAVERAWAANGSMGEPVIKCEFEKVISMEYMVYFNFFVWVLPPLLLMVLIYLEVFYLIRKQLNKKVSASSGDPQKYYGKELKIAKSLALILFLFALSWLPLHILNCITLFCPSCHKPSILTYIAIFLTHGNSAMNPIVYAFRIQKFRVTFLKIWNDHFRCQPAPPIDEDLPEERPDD
- assay-explanation: Displacement of [3H]DPCPX from recombinant human A1 receptor expressed in CHO cell membranes at 10 uM
Short version: inhibition at least 30% is satisfied, less is not satisfied.

Record excerpt, results attached:
| chemical-smiles | group-label |
| --- | --- |
| CNC(=O)[C@@]12C[C@@H]1[C@@H](n1cnc3c(NC)nc(C#Cc4ccc(Cl)s4)nc31)[C@H](O)[C@@H]2O | not satisfied |
| COc1cc(CCNc2nc(C#Cc3ccc(Cl)s3)nc3[nH]cnc23)ccc1O | not satisfied |
| CCNc1nc(C#Cc2ccc(Cl)s2)nc2[nH]cnc12 | satisfied |
| O=S(=O)(O)c1ccc(C#Cc2nc(NC(C3CC3)C3CC3)c3nc[nH]c3n2)cc1 | satisfied |

Kindly determine if inhibition recorded for CNc1nc(C#Cc2ccc(Cl)s2)nc2[nH]cnc12 is above or exactly 30%.
not satisfied

Textbook exercise: given the entry CCCNc1nc(C#Cc2ccc(Cl)s2)nc2[nH]cnc12 , state whether its inhibition is greater than or equal to 30%.
satisfied

Evaluate Oc1ccc(CCNc2nc(C#Cc3ccc(Cl)s3)nc3[nH]cnc23)cc1O : inhibition at minimum 30%?
not satisfied
